System: HepG2, HB-8065
ASSAY OVERVIEW: Cytotoxicity colorimetric (tetrazolium) assay
Type: cell-based, human
MEASUREMENT PARAMETERS: HepG2 cells; one hour with compound in serum-free media
# if measured EC50 HepG2 (cytotoxicity) < 200 µg/mL: met  # else: not met

# example entries with known answers
SMILES DATA	ANSWER LABEL
Nc1cccc(-c2ccc3[nH]c4ccc(-c5cccc(N)c5)cc4c3c2)c1	not met
NCCCOc1cc(OCCCN)cc(-c2cc(-c3cc(-c4cc(OCCCN)cc(OCCCN)c4)cc(C(F)(F)F)c3)cc(C(F)(F)F)c2)c1	met
NCCNC(=O)c1cc(C(=O)NCCN)cc(-c2ccc3oc4ccc(-c5cc(C(=O)NCCN)cc(C(=O)NCCN)c5)cc4c3c2)c1	met
NCCCOc1cc(OCCCN)cc(-c2ccc3c(c2)C(=O)c2cc(-c4cc(OCCCN)cc(OCCCN)c4)ccc2CC3)c1	met
N=C(N)NCCc1cc(CCNC(=N)N)cc(-c2cc(F)cc(-c3cc(F)cc(-c4cc(CCNC(=N)N)cc(CCNC(=N)N)c4)c3)c2)c1	not met
O=C(Nc1ccc(-c2ccnc(N3CCNCC3)c2)cc1F)Nc1ccc(-c2ccnc(N3CCNCC3)c2)cc1F	met
NCCc1cccc(-c2ccc3c(c2)C(=O)c2cc(-c4cccc(CCN)c4)ccc2CC3)c1	met
NCCCOc1cc(-c2ccc3sc4ccc(-c5cc(OCCCN)c(OCCCN)c(OCCCN)c5)cc4c3c2)cc(OCCCN)c1OCCCN	met

Dear colleague, could you confirm whether EC50 HepG2 (cytotoxicity) of Cc1cc(-c2cc(OCCCN)cc(OCCCN)c2)cc(-c2cc(-c3cc(OCCCN)cc(OCCCN)c3)cc(C)c2F)c1F falls below 200 µg/mL? Thanks.
met

Dear colleague, could you confirm whether EC50 HepG2 (cytotoxicity) of NCCc1cccc(-c2ccc3c(c2)C(=O)c2cc(-c4cccc(CCN)c4)cc(-c4cccc(CCN)c4)c2CC3)c1 falls below 200 µg/mL? Thanks.
met

Dear colleague, could you confirm whether EC50 HepG2 (cytotoxicity) of NCCN(CCN)Cc1cccc(-c2ccc3sc4ccc(-c5cccc(CN(CCN)CCN)c5)cc4c3c2)c1 falls below 200 µg/mL? Thanks.
met

Dear colleague, could you confirm whether EC50 HepG2 (cytotoxicity) of CCn1c2ccc(-c3cc(C(=O)NCCN)cc(C(=O)NCCN)c3)cc2c2cc(-c3cc(C(=O)NCCN)cc(C(=O)NCCN)c3)ccc21 falls below 200 µg/mL? Thanks.
not met

Dear colleague, could you confirm whether EC50 HepG2 (cytotoxicity) of NCCCOc1cc(OCCCN)cc(-c2cc(F)cc(-c3cc(F)cc(-c4cc(OCCCN)cc(OCCCN)c4)c3)c2)c1 falls below 200 µg/mL? Thanks.
not met

Dear colleague, could you confirm whether EC50 HepG2 (cytotoxicity) of NCCN(CCN)Cc1cccc(-c2ccc3[nH]c4ccc(-c5cccc(CN(CCN)CCN)c5)cc4c3c2)c1 falls below 200 µg/mL? Thanks.
not met
